Cited source for all entries: the DeepSol protein solubility set

assay: soluble on expression in E. coli; label from the status in PepcDB or PDB records
Observed property: soluble on expression in E. coli

Worked examples, 5 sequences total:
MGSDKIHHHHHHMSEIWRQCKGERHIRPLQGRLVRLVESQEQVATLQLVDTLEEQALLEELLESSKPPVPADAEPLHYLLKTPFRYPPLRWGSRFGRRHEPSLFYAALKLETAMAESAYYRCVLWSGMVVPPPSGRILSEHASFEAGWKVERGIRLQAPPFSDHEAALTDIADYRAPQELGSAMRSAGVQAFEYRSARCPERGCNVALFTPAAFTEKRPRNLTPWLCETTAGYVAFKPAHVPGSPKIFSWELFLVDGKLPHPA | not soluble
MGLGSSKRKEEPPHKSEPKTVGRVKRAGARPDEMIAKYAEVLKTRGILPEYFLVHEAKSSQYIDEDGDVANEFYQETMSDGEKRRLCRLMKNLRPKGKERYAIPRLKHDIPVVIWEVQQPQET | not soluble
MRPLILSIFALFLAGCTHSQQSMVDTFRASLFDNQDITVADQQIQALPYSTMYLRLNEGQRIFVVLGYIEQEQSKWLSQDNAMLVTHNGRLLKTVKLNNNLLEVTNSGQDPLRNALAIKDGSRWTRDILWSEDNHFRSATLSSTFSFAGLETLHIAGRDVLCNVWQEEVTSTLPEKQWQNTFWVDSATGQVRQSRQMLGAGVIPVEMTFLKPAP | not soluble
MSTFGEHRPYVFLPPADLDRIAAQWSKDSARPDAQGRGIAIFSAITGSYDSINHHEHLIPGADYLLFSDAPKPRYVYQPRQAPWFDCDTVRAARFIKTHPHMLLGGYRIAVWIDGNILIRGDLLPLVQRFEESGLAFGAVPHPLRQSVYAEAVECMKRGKDDEATIRRQMQRYRREEFDCEDLIESNLLMFRLGHPSLAPLLDTWWAQIESGSRRDQLSLNYALHKTGVEWLALTQRPHSVRDHPALALMHHRSQFNPLEHHHHHH | soluble
MPDDKAVNGRRDFLRKTLTVIPAVTLAGYGVGHAMQTPAAEQDKPRERYQPRFFTNTEWAFVNAAVARLIPSDDNGPGAIEAGVPEFIDRQMETPYGHGALWYMQGPFVTDAAPEFGHQLKLVPRDIYRVGIAALERWSKANQGKPFAELEPSAQDDILQRLEAGQIDLQDLPAKLLFGQLLQNTHEGFFSDPQHGGNRGLVGWKLVGFPGARADFMDWADRGEKYPFPPVAISGERG | not soluble

Please go through the list and note soluble on expression in E. coli for each sequence.
1. AKEDNIEMQGTVLETLPNTMFRVELENGHVVTAHISGKMRKNYIRILTGDKVTVELTPYDLSKGRIVFRSR
2. MSLEKKFVIWGRNPIIEALRAGRNLEKIYVAHDSHPPKELLELAKKRGVKVQRISRKKVEELAGTKKTQGVVALLSPVNYVSPHELFKECIEKKSFFIVIDHITDPQNVGNLLRTCEVLGGVGALISKDRTSPINETVVKASSGAVFHLKISKVSSLSRELKNFQKMGGWVFAVEKGGKDIREVDIPLPVALVLGSEDKGVSKSVLDISDQIVTIPMKGKVTSLNVGSAGAIAMWETAKKILEGHHHHHH
3. MGDIEDAPRIISGIGELDRATGGGFVRGSALLVGGDPGIGKSTLLTQAAAALASRGHRIVYVSGEEAVAQIRLRAQRLGVADSPVELAAETNVEDILATIADGKRPDLVILDSIQTLWTDLADSAPGTVTQVRAAAQAMIRYAKSTGAAIVLVGHVTKEGQIAGPRVVEHMVDGVLYFEGEGGHHYRILRTVKNRFGLEHHHHHH

Result:
1. soluble
2. soluble
3. not soluble

Please go through the list and note soluble on expression in E. coli for each sequence.
1. MGHHHHHHSHVNTLGPEGTSSEYAAKHFISNFTLLQGLNSKLSLHDTFESCIERTLQSPLEYTIVPHAYDGIKHFYMRPDLQLLQIFRCDTPMYGLAVRPDFEFRDDMLDTSVIVSHPSPINLIKYFTRKDVRFKLVNSTSQAARKVKEGLYDIALTNELARQKYGLTFVKTFKSIPMSWSLFGKGDV
2. MCPRTSCRFYPFTIDFGTFRMAIIHAKSMTIPTSKLVAFSDKFLQNLRCFNCAVMDIVKNDATLPLGHLEEYTPGNRIGNWIGPVKGINIPSHLKADFRKSQPLSITRSVREAEWCTPFINCTQYYICINHLFAERIATKLRQVMGHTMISNCVSLLYLTGDFRRSSRFSGPIESANITSNLEEHCWHSIVLDFFDFICINSMRAIIEGKYQCFRRFITKYLMFAFFNWYRISFENSIIMQNHFTCVRTTQMRHVVIPLFTLNKDSSITIKRNRPSNFLIVVALNLICLEHHHHHH
3. MKKGCKYGTHRVIEPAGVLPQPAKKISNDMEIFSNEILIDVIALNIDSASFTQIEEEAGHDVEKVKAKIKEIVAERGKMQNPVTGSGGMLIGTVEKIGDDLVGKTDLKVGDKIATLVSLSLTPLRIDEIINIKPEIDRVEIKGKAILFESGIYAVLPKDMPENLALAALDVAGAPAQVAKLVKPCQSVAILGSAGKSGMLCAYEAVKRVGPTGKVIGVVRNDKEKALLQRVSDKVKIVIADATKPMDVLHAVLEANDAKEVDVAINCVNVPNTEMSTILPVKEFGIAYFFSMATGFSKAALGAEGVGKDITMIVGNGYTVDHAAITLEELRESAVLREIFNEIYLLEHHHHHH
4. MLQHYSVSWKKGLAALCLLAVAGLSGCDQQENAAAKVEYDGLSNSQPLRVDANNHTVTMLVQINGRFLTDDTRHGIVFKDGSNGHKSLFMGYATPKAFYEALKEAGGTPGENMTMDNKETTHVTGSKLDISVNWQGAAKAYSFDEVIVDSNGKKLDMRFGGNLTAAEEKKTGCLVCLDSCPVGIVSNATYTYGAVEKRGEVKFKGNASVLPADNTLATVTFKIAE
5. MARARKGALVQCDPSIKALILQIDAKMSDIVLEELDDTHLLVNPSKVEFVKHELNRLLSKNIYNPMDEEENQ

Result:
1. soluble
2. not soluble
3. soluble
4. soluble
5. soluble
